The reported numbers originate from patent EP4772193A1.

target_desc: T1, recombinant human soluble gpNMB (recombinant human gpNMB-FLAG-His) (human, UniProt Q14956 23-498)
T1 sequence: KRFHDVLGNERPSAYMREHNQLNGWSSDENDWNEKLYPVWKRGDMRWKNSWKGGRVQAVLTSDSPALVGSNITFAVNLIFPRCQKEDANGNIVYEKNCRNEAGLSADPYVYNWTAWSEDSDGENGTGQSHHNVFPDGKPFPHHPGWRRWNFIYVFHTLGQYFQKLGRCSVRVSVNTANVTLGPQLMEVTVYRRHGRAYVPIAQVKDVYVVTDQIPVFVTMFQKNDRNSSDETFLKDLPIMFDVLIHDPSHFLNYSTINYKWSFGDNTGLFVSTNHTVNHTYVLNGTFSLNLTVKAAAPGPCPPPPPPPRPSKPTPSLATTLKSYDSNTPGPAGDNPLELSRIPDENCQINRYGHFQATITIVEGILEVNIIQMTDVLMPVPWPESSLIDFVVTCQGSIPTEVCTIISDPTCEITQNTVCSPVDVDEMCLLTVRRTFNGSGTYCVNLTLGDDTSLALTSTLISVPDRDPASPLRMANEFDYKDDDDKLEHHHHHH
assay_comment: antigen ELISA
Parameter EC50: see the listing below.
# output: bare number, implied unit nM

Consider the following illustrative entries.
- binder: "hGPN06-1_H1L1 VH G108A (antibody, V domains shown) VH: QVQLVQSGAEVKKPGASVKVSCKASGYTFTDNWMGWVKQRPGQGLEWIGAIDPSDSFTNYNQNFKGRVTMTVDTSISTAYMELSRLRSDDSAVYFCTRSGYYGSPKLAGDYWGQGTLVTVSS VL: EIVLTQSPSSLSASVGDRVTITCSASSSISYMHWYQQKSGTAPKLLIYSTSNLASGVPSRFSGSGSGTDFTFTISSLQPEDAATYYCHQWNSYPCTFGGGTKLEIK"
  EC50 / nM: 0.476
- binder: "hGPN06-1_H1L1 VH D110A (antibody, V domains shown) VH: QVQLVQSGAEVKKPGASVKVSCKASGYTFTDNWMGWVKQRPGQGLEWIGAIDPSDSFTNYNQNFKGRVTMTVDTSISTAYMELSRLRSDDSAVYFCTRSGYYGSPKLGGAYWGQGTLVTVSS VL: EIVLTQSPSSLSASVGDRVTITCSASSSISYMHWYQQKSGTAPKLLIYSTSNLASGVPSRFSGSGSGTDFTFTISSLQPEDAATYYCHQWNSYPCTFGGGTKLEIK"
  EC50 / nM: 0.956

With those in mind, consider the next binder.
Tell me the measured EC50 of hGPN06-1_H1L1 VH Y111A (antibody, V domains shown) VH: QVQLVQSGAEVKKPGASVKVSCKASGYTFTDNWMGWVKQRPGQGLEWIGAIDPSDSFTNYNQNFKGRVTMTVDTSISTAYMELSRLRSDDSAVYFCTRSGYYGSPKLGGDAWGQGTLVTVSS VL: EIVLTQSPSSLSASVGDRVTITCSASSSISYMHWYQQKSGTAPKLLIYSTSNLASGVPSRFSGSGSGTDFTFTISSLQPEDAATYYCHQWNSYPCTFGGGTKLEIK , please.
0.584
